Parameter relative activity (%) E. coli HB101 (pNTOM4): see the listing below.
System: polypeptide consisting of the amino acid sequence shown in SEQ ID NO: 4 (carbonyl reductase), cell-free extract of E. coli HB101 (pNTOM4)
Protocol Details: Substrate specificity of polypeptide produced by transformant E. coli HB101 (pNTOM4)
Assay type: biochemical, Ogataea minuta var. minuta NBRC0975
Condition Description: 1 mM substrate, 0.25 mM NADPH, pH 6.5, 30° C., 1 min; relative to activity on CBPB as 100%
Property Label: relative activity (%) E. coli HB101 (pNTOM4)

* CCOC(=O)CC(=O)c1ccccc1 [ethyl benzoylacetate] | 0
* CC(=O)c1cnccn1 [acetylpyrazine] | 0
* CC(=O)C(C)=O [diacetyl] | 5
* CC(=O)CCc1ccccc1 [benzylacetone] | 0
* COC(=O)C(C)=O [methyl pyruvate] | 5
* O=Cc1ccccn1 [2-pyridinecarbaldehyde] | 1
* CCCCCC(C)=O [2-heptanone] | 0
* CCOC(=O)C(=O)CCc1ccccc1 [ethyl 2-oxo-4-phenylbutyrate] | 106
* CCOC(=O)C(C)C(C)=O (centres unmarked) [ethyl 2-methylacetoacetate] | 4
* CCC(=O)c1ccccc1 [propiophenone] | 2
* CCCCCCC(C)=O [2-octanone] | 3
* CCOC(=O)CC(=O)CCl [ethyl 4-chloroacetoacetate] | 22
* CC(=O)CC(=O)OC(C)(C)C [tert-butyl acetoacetate] | 2
* CC(=O)c1cccc(O)c1 [3′-hydroxyacetophenone] | 0
* CCC(=O)Cc1ccccc1 [1-phenyl-2-butanone] | 2
* O=C(CO)c1ccccc1 [2-hydroxyacetophenone] | 1
* O=Cc1ccc([N+](=O)[O-])cc1 [p-nitrobenzaldehyde] | 21
* CC(=O)c1ccc(Cl)cc1 [4′-chloroacetophenone] | 9
* CC(=O)CO [hydroxyacetone] | 0
* CCOC(=O)CC(=O)COC(C)=O [ethyl 4-acetoxyacetoacetate] | 1
* CCOC(=O)C(Cl)C(=O)c1ccccc1 (centres unmarked) [ethyl 2-chloro-3-oxo-3-phenylpropionate] | 5
* CC(=O)c1ccc(F)cc1 [4′-fluoroacetophenone] | 1
* O=Cc1ccccc1 [benzaldehyde] | 1
* CCC=O [propionaldehyde] | 0
* CCCCCCCCC(=O)C(=O)OCC [ethyl 2-oxodecanoate] | 5
* CCCCCCCCOC(=O)CC(=O)CCl [n-octyl 4-chloroacetoacetate] | 24
* CCCCC(C)=O [2-hexanone] | 0
* O=Cc1ccncc1 [pyridine-4-aldehyde] | 2
* CCCC=O [n-butylaldehyde] | 0
* CC(=O)c1cccnc1 [3-acetylpyridine] | 0
* COc1ccc(C(C)=O)cc1OC [3′,4′-dimethoxyacetophenone] | 4
* O=C1CCCC1 [cyclopentanone] | 0
* CC(=O)CC(=O)OCc1ccccc1 [benzyl acetoacetate] | 4
* CCOC(=O)C(=O)c1ccccc1 [ethyl benzoylformate] | 20
* CCOC(=O)CC(=O)COCc1ccccc1 [ethyl 4-benzyloxyacetoacetate] | 8
* O=Cc1cccc([N+](=O)[O-])c1 [m-nitrobenzaldehyde] | 29
* O=CCCCC=O [glutaraldehyde] | 1
* CCOC(=O)C(Cl)C(C)=O (centres unmarked) [ethyl 2-chloroacetoacetate] | 40
* O=C(CCl)c1cccc(Cl)c1 [2-chloro-1-(3′-chlorophenyl)ethanone] | 33
* CCOC(=O)CC(C)=O [ethyl acetoacetate] | 0
* O=Cc1cccc(Cl)c1 [m-chlorobenzaldehyde] | 17
